Each recorded value in this set is attributed to ChEMBL document CHEMBL1139422.

Target: Histone deacetylase 1 (Homo sapiens, UniProt Q13547)
Sequence (Q13547 whole entry): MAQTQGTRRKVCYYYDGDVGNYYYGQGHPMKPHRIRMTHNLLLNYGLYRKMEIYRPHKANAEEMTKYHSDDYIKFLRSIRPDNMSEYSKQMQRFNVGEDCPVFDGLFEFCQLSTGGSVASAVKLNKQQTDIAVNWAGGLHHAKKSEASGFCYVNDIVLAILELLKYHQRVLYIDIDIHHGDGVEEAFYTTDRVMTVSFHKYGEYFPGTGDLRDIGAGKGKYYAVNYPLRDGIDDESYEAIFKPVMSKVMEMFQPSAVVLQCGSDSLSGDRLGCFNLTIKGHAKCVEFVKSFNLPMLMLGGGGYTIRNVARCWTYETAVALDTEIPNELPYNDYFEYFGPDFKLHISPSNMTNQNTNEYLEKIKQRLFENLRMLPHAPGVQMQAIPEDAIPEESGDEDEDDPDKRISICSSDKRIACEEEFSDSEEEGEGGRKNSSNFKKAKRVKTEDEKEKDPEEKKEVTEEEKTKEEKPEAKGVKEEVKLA
Experiment: Inhibition of human recombinant HDAC1 using Fluor de Lys as substrate by fluorimetric assay
pIC50: −log10 of the molar value.
Measured endpoint: pIC50

Below: 3 compounds and their reported pIC50.
QUERY: Please look up its pIC50: `O=C(/C=C/c1ccc(/C=C/C(=O)c2ccccc2)o1)NO`
RESULT: 4.94

QUERY: Would you kindly repeat that for `Cc1ccc(C(=O)/C=C/c2ccc(/C=C/C(=O)NO)o2)cc1` ?
RESULT: 4.88

QUERY: # repeat for `O=C(/C=C/c1ccc(/C=C/C(=O)c2ccc(Cl)cc2)o1)NO`
RESULT: 4.80

1. O=C(CCCCCCC(=O)Nc1ccccc1C(=O)NO)Nc1ccccc1
2. O=C(NO)c1ccc(/C=C/c2ccc(O)cc2)o1
QUERY: Of 1 and 2 , which shows the smaller pIC50 value? Bench note: the answer is the label of the chosen record.
RESULT: 2
(2: 4.37, 1: 6.23)

====

System: HCT-116
Assay: Antiproliferative activity against human HCT116 cells after 48 hrs by MTT assay
Format: functional, cell-based
Settings: HCT-116, 48 h
Measured endpoint: IC50 (nM)

Use these answered entries as a reference point.
QUERY: API: value(readout= IC50, system= HCT-116, query= `O=C(/C=C/c1ccc(/C=C/C(=O)c2ccc3ccccc3c2)o1)NO` )
RESULT: 2220

QUERY: // repeat for `O=C(/C=C/c1ccc(/C=C/C(=O)c2cc(Cl)ccc2Cl)o1)NO` and report
RESULT: 4120

QUERY: Repeat for the following compound: `O=C(/C=C/c1ccc(/C=C/C(=O)c2ccc(Cl)cc2)o1)NO`
RESULT: 2010

A. COc1ccc2cc(C(=O)/C=C/c3ccc(/C=C/C(=O)NO)o3)ccc2c1
B. O=C(NO)c1ccc(/C=C/c2cccc(Cl)c2Cl)o1
QUERY: Among A and B , whose measured IC50 is the smaller figure? Give the label of your selection.
RESULT: A

====

Molecular target: Histone deacetylase 1 (Homo sapiens, UniProt Q13547)
Assay: Inhibition of human recombinant HDAC1 using Fluor de Lys as substrate by fluorimetric assay
Measured endpoint: IC50 (µM)

a. O=C(/C=C/c1ccc(/C=C/C(=O)c2ccc(F)cc2)o1)NO
b. O=C(NO)c1ccc(/C=C/c2ccccc2O)o1
c. O=C(/C=C/c1ccc(/C=C/C(=O)c2ccc3ccccc3c2)o1)NO
QUERY: Rank the listed compounds by IC50, largest first. Give me the labels in the order the question wants.
RESULT: b, a, c
(b: 47.1 µM, a: 15 µM, c: 3.77 µM)

1. O=C(NO)c1ccc(/C=C/c2ccccc2)o1
2. O=C(/C=C/c1ccc(/C=C/C(=O)c2cccc(Cl)c2)o1)NO
QUERY: Lab note: check whether 1 or 2 shows the higher recorded IC50. Could you answer with the label of the item you picked?
RESULT: 1
(1: 49.1 µM, 2: 12.6 µM)

====

System: HepG2
Test: Antiproliferative activity against human HepG2 cells after 48 hrs by MTT assay
Assay type: functional, cell-based
Conditions: HepG2, 48 h
Measured endpoint: IC50 (µM)

A. CC(=O)O[C@H]1C(=O)[C@@]2(C)[C@H]([C@H](OC(=O)c3ccccc3)[C@]3(O)C[C@H](OC(=O)[C@H](O)[C@@H](NC(=O)c4ccccc4)c4ccccc4)C(C)=C1C3(C)C)[C@]1(OC(C)=O)CO[C@@H]1C[C@@H]2O
B. O=C(/C=C/c1ccc(/C=C/C(=O)c2ccccc2)o1)NO
C. O=C(NO)c1ccc(/C=C/c2cccc(Cl)c2Cl)o1
QUERY: Order these molecules (above) by their IC50, from the smallest value upward. Dear reader, please state the labels in the requested order.
RESULT: A, B, C

====

System: HepG2
Experiment: Antiproliferative activity against human HepG2 cells after 48 hrs by MTT assay
Assay type: functional, cell-based
Conditions: HepG2, 48 h
pIC50: −log10 of the molar value.
Measured endpoint: pIC50

Example results:
QUERY: # get_value(readout='pIC50', item= `O=C(NO)c1ccc(/C=C/c2ccccc2)o1` )
RESULT: 4.89

QUERY: Entry `O=C(/C=C/c1ccc(/C=C/C(=O)c2cc(Cl)ccc2Cl)o1)NO` please
RESULT: 4.32

QUERY: Another: `O=C(/C=C/c1ccc(/C=C/C(=O)c2ccc3ccccc3c2)o1)NO`
RESULT: 5.00

QUERY: Same question for `O=C(NO)c1ccc(/C=C/c2ccc3c(c2)OCO3)o1` please.
RESULT: 4.47

1. CC(C)c1ccc(C(=O)/C=C/c2ccc(/C=C/C(=O)NO)o2)cc1
2. O=C(/C=C/c1ccc(/C=C/C(=O)c2ccc(Cl)cc2Cl)o1)NO
QUERY: Problem: Given the entries 1 and 2 , determine which has the lower reported pIC50. Selection: enter the item's label.
RESULT: 1
